Listing: % MaxiK opening of selected compounds
Test system: cloned mammalian (mSlo or hSlo) BK channel expressed in Xenopus oocytes
Assay: Assay for BK channel openers: two-electrode voltage clamp, BK-mediated outward current in Xenopus oocytes
Assay type: cell-based
Conditions: at 20 μM; percent increase over BK current in controls; voltage step to +140 mV; IBTX-sensitive current

>  <Entry smiles>
COc1ccc(Cl)cc1-c1c(Sc2ccc(NS(=O)(=O)C(F)(F)F)cc2)c(=O)[nH]c2ccc(C(F)(F)F)cc12

>  <Experimental system>
cloned mammalian (mSlo or hSlo) BK channel expressed in Xenopus oocytes

>  <% MaxiK opening>
235%

$$$$
>  <Entry smiles>
O=c1[nH]c2ccc(C(F)(F)F)cc2c(-c2cc(Cl)ccc2O)c1Sc1ccc(NS(=O)(=O)C(F)(F)F)cc1

>  <Experimental system>
cloned mammalian (mSlo or hSlo) BK channel expressed in Xenopus oocytes

>  <% MaxiK opening>
277%

$$$$
>  <Entry smiles>
CCS(=O)(=O)Nc1ccc(Sc2c(-c3cc(Cl)ccc3O)c3cc(C(F)(F)F)ccc3[nH]c2=O)cc1

>  <Experimental system>
cloned mammalian (mSlo or hSlo) BK channel expressed in Xenopus oocytes

>  <% MaxiK opening>
296%

$$$$
>  <Entry smiles>
Nc1ccc(Sc2c(-c3cc(Cl)ccc3O)c3cc(C(F)(F)F)ccc3[nH]c2=O)cc1

>  <Experimental system>
cloned mammalian (mSlo or hSlo) BK channel expressed in Xenopus oocytes

>  <% MaxiK opening>
392%

$$$$
>  <Entry smiles>
O=c1[nH]c2ccc(C(F)(F)F)cc2c(-c2cc(Cl)ccc2O)c1Sc1ccc(NS(=O)(=O)CC(F)(F)F)cc1

>  <Experimental system>
cloned mammalian (mSlo or hSlo) BK channel expressed in Xenopus oocytes

>  <% MaxiK opening>
170%

$$$$
>  <Entry smiles>
CCCS(=O)(=O)Nc1ccc(Sc2c(-c3cc(Cl)ccc3O)c3cc(C(F)(F)F)ccc3[nH]c2=O)cc1

>  <Experimental system>
cloned mammalian (mSlo or hSlo) BK channel expressed in Xenopus oocytes

>  <% MaxiK opening>
255%

$$$$
>  <Entry smiles>
Cn1c(=O)c(Sc2ccc(N)cc2)c(-c2cc(Cl)ccc2O)c2cc(C(F)(F)F)ccc21

>  <Experimental system>
cloned mammalian (mSlo or hSlo) BK channel expressed in Xenopus oocytes

>  <% MaxiK opening>
144%

$$$$

From: patent US7145013B2
